tested on: RXF 393 renal; test: NCI tumour cell line growth inhibition, 48 h; in the data active = GI50 below about 0.43 µM; inactive = the rest
Respond only with the outcome that fits, drawn from active, inactive

| COMPOUND | CLASS |
| --- | --- |
| CCN(Cc1cccc(F)c1F)c1ccc(CO)c(Cl)c1 | inactive |

Short answer needed: outcome of this test for `CC1(C)CC(=O)c2c(ccc(C(=O)C[C@@H](N)CO)c2N)O1` ? inactive

###

tested on: M14 melanoma; assay: NCI tumour cell line growth inhibition, 48 h
The entries below are paired with their reported GI50.

| MOLECULE | STUDY SYSTEM | RESULT VALUE |
| --- | --- | --- |
| CCCCN1CCN(c2ccc3nc(-c4ccc5nc(-c6ccc(OCC)c(OCC)c6)[nH]c5c4)[nH]c3c2)CC1 | M14 melanoma | 314 nM |
| CC(=O)c1ccc2c(c1)N(CCCN(C)C)c1ccccc1S2 | M14 melanoma | 14900 nM |
| CCCCCSC1C2C(=O)C(Br)=CC13CCNc1c(O)c4c5c(c13)=[N+]2CCC=5C=N4 (centres undefined) | M14 melanoma | 1510 nM |
| Cn1c2ccccc2c2nnc(NNCc3ccccn3)nc21 | M14 melanoma | 246 nM |
| COc1ccc(/C(=N/O)c2cc(OC)c(OC)c(OC)c2)c(OC)c1N | M14 melanoma | 2700 nM |

Respond only with GI50 recorded for `CC(=O)/C(=C\c1c(-c2ccccc2)[nH]c2ccccc12)S(=O)(=O)c1ccccc1` 513 nM

Give GI50 for `CCOC(=O)c1nc2cc(C(F)(F)F)ccc2[n+]([O-])c1C` > 100000 nM

Please give the documented GI50 of `O=Nc1c(O)c2ccccc2c2ccccc12` 446 nM

Answer with reported GI50 of `O=S(=O)(NCCO)c1cc[c]([Sb](=[O])([OH])[OH])cc1` > 100000 nM
